- TARGET_OF_ASSAY: Peroxisome proliferator-activated receptor gamma (Homo sapiens) (UniProt P37231)
- Sequence (P37231 whole entry, looked up): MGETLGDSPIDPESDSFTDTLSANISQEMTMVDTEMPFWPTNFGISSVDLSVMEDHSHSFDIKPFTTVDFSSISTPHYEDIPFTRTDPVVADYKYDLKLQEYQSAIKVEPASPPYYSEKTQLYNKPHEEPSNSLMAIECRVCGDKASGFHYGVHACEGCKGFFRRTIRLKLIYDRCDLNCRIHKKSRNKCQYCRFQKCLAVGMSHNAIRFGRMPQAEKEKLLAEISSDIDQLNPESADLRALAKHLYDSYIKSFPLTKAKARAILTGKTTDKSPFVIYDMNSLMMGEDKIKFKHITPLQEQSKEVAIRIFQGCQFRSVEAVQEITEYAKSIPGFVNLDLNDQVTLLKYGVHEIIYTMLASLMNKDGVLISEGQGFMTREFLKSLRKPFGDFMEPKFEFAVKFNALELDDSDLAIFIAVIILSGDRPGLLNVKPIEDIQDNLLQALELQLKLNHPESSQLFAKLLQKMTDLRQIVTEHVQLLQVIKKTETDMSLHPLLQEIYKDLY
- EXPERIMENTAL_DETAILS: qHTS assay to identify small molecule agonists of the peroxisome proliferator-activated receptor gamma (PPARg) signaling pathway (AID 743094); as to activation: % is scaled to controls: 0 for no effect and ±100 for the full control effect
- CONDITION_SET: HEK293H PPARg-UAS-bla, beta-lactamase FRET ratio, 17 h; series mostly up to 57 µM
- Excerpt: U.S. Tox21 Program National Center for Advancing Translational Sciences [NCATS] NIH Chemical Genomics Center [NCGC] U.S. Environmental Protection Agency [EPA] National Institutes of Environmental Health Sciences [NIEHS] National Toxicology Program [NTP] U.S. Food and Drug Administration [FDA] […]
Records with an inconclusive call do not appear. The source made the active and inactive calls. Calls follow the shape of the dose curve; as a rule, active = well fitted activation curve with a large enough effect in the signal ratio in the repeat runs (not every such curve was filed as active); inconclusive = weak or mixed curves, or effect the other way; inactive = no such curve, though single readings can be large or run the other way; the % refers to the signal ratio.
Parameter call: string, one of active, inactive

# COMPOUND, TARGET_OF_ASSAY, CLASS_LABEL
measured = [
    ("Cc1ccc(N)cc1C", "Peroxisome proliferator-activated receptor gamma (Homo sapiens) (UniProt P37231)", "inactive"),
    ("CN1[C@@H]2CC[C@H]1CC(OC(=O)c1cc(Cl)cc(Cl)c1)C2 (stereo partly drawn)", "Peroxisome proliferator-activated receptor gamma (Homo sapiens) (UniProt P37231)", "inactive"),
    ("Cn1cc[n+](C)c1 (tested in a mixture with another compound)", "Peroxisome proliferator-activated receptor gamma (Homo sapiens) (UniProt P37231)", "inactive"),
    ("CCc1ccc(C(=O)NN(C(=O)c2cc(C)cc(C)c2)C(C)(C)C)cc1", "Peroxisome proliferator-activated receptor gamma (Homo sapiens) (UniProt P37231)", "inactive"),
    ("O=[N+]([O-])C(Br)(CO)CO", "Peroxisome proliferator-activated receptor gamma (Homo sapiens) (UniProt P37231)", "inactive"),
]

Outcome logged for `N#CCC#N` in this assay: inactive

Recorded call for `NC(=O)CI` ? inactive

// param item: CCC(Cl)CCl (stereo not drawn) ; yields the recorded call inactive

Dear all, I need the recorded test outcome for `NS(=O)(=O)C(F)(F)C(F)(F)C(F)(F)C(F)(F)C(F)(F)C(F)(F)C(F)(F)C(F)(F)F` , thank you. inactive

Field: outcome | Entry: `O=[N+]([O-])c1ccccc1CCl` active

Each compound tested received a call. Report the one for `C=CCC1([C@H](C)CCC)C(=O)NC(=O)NC1=O` . inactive

GET /call?item= `CCC(Br)(CC)C(=O)NC(N)=O` returns the recorded outcome of this test. inactive

Give the logged outcome of this assay for the following compound: `CC(C)N(C(=O)COc1nnc(C(F)(F)F)s1)c1ccc(F)cc1` inactive

###

- TARGET_OF_ASSAY: Thyrotropin receptor (Homo sapiens) (UniProt P16473)
- Sequence (P16473 whole entry, looked up): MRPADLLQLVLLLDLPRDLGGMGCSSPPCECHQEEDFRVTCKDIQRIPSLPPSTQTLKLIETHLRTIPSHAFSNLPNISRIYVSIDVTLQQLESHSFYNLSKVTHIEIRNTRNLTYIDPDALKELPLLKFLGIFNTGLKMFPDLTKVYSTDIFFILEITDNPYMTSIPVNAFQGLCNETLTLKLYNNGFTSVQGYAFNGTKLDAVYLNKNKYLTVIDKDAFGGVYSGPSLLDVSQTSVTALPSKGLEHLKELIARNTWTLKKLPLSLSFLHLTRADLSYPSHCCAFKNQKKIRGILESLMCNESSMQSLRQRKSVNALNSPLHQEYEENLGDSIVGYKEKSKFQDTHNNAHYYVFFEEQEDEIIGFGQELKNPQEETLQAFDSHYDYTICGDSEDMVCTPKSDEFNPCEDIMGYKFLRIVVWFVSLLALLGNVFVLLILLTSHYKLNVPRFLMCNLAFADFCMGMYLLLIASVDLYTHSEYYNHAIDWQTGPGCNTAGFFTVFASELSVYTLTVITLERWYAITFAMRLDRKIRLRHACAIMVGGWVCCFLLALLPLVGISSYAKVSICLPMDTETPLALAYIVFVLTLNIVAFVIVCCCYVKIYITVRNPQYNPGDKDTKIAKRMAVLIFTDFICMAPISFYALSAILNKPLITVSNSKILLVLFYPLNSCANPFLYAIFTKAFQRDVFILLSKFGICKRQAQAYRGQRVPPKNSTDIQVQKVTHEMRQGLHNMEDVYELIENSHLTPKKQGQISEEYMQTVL
- EXPERIMENTAL_DETAILS: qHTS assay to identify small molecule agonists of the thyroid stimulating hormone receptor (TSHR) signaling pathway (AID 1224843); also: nearly all actives have a fitted effect of over 45% in size; also: potency is read from the fitted curve at half-maximal effect
- CONDITION_SET: TSHR-HEK293 cells, cAMP HTRF, agonist mode, 30 min; series mostly up to 92.4 µM
Inconclusive results are not listed. The source made the active and inactive calls. Calls come from the whole dose curve.
REPORTED_ENDPOINT: Potency

Some solved entries appear below for comparison.
# COMPOUND, Potency
data = [
    ("CC(C)O.CC(C)O.OCCN(CCO)CCO.OCCN(CCO)CCO.[Ti]", "inactive"),
    ("C=CCN1CC[C@]23c4c5ccc(O)c4O[C@H]2C(=O)CC[C@@]3(O)[C@H]1C5", "inactive"),
    ("COC(=O)C(C)N(C(=O)Cc1ccccc1)c1c(C)cccc1C (stereo not drawn)", "27.3 µM (active)"),
    ("CC(C)(Cl)[N+](=O)[O-]", "inactive"),
    ("Clc1cccc2ccccc12", "inactive"),
    ("Clc1ccc(C(OCCN2CCCCC2)c2ccccc2)cc1 (stereo not drawn)", "inactive"),
    ("CCCN(CC1CC1)c1c([N+](=O)[O-])cc(C(F)(F)F)cc1[N+](=O)[O-]", "6.86 µM (active)"),
    ("CC(C)(OO)c1ccccc1", "34.4 µM (active)"),
]

What is its Potency for Thyrotropin receptor (Homo sapiens) (UniProt P16473)? Entry: `O=NN1CCCCCC1` inactive

Given the entry `N#C/C(N)=C(/N)C#N` , what Potency was observed with Thyrotropin receptor (Homo sapiens) (UniProt P16473)? inactive

Could you share what Potency was measured for `Cc1cc(=O)[nH]o1` , tested on Thyrotropin receptor (Homo sapiens) (UniProt P16473)? inactive

Find Potency (Thyrotropin receptor (Homo sapiens) (UniProt P16473)) for the entry CC(C)N(CCC(C(N)=O)(c1ccccc1)c1ccccn1)C(C)C (stereo not drawn) inactive

Missing value: Potency, Thyrotropin receptor (Homo sapiens) (UniProt P16473), entry `O=C(Nc1ccccc1)Nc1cnns1` . Fill in? inactive

###

- EXPERIMENTAL_DETAILS: qHTS RealTime-Glo MT Cell Viability Assay in HepG2 cells - 40 hour (AID 1224870); also: % is scaled to controls: 0 for no effect and ±100 for the full control effect; nearly all actives have a fitted effect of over 50% in size
- CONDITION_SET: RealTime-Glo luminescence; series mostly up to 76.8 µM
Results filed as inconclusive are left out. Calls of active or inactive are those of the source. The call rests on the fitted dose curve; in most records, active means well fitted cell-killing curve with a large enough effect in the repeat runs; inconclusive means weak or mixed curves, or effect the other way; inactive means flat fitted curve, though single readings scatter.
REPORTED_ENDPOINT: Potency

Worked examples follow.
# COMPOUND, Potency
records = [
    ("CCCN(CCC)c1c([N+](=O)[O-])cc(S(C)(=O)=O)cc1[N+](=O)[O-]", "inactive"),
    ("CC(C)(C)C(O)C(Oc1ccc(Cl)cc1)n1cncn1 (stereo not drawn)", "inactive"),
    ("CCOC(=O)COc1cc(-c2nn(C)c(OC(F)F)c2Cl)c(F)cc1Cl", "inactive"),
    ("O=[N+]([O-])c1cc(C(F)(F)F)cc([N+](=O)[O-])c1Cl", "inactive"),
    ("CN(N=O)c1ccc([N+](=O)[O-])cc1", "inactive"),
]

Entry `CCC(Br)(CC)C(=O)NC(N)=O` : reported Potency = ? inactive

###

- EXPERIMENTAL_DETAILS: qHTS assay to identify small molecule agonists of H2AX - cell viability counter screen (AID 1224847); also: nearly all actives have a fitted effect of over 30% in size
- CONDITION_SET: CHO-K1 viability, CellTiter-Glo luminescence, 3 h; series mostly up to 154 µM
Inconclusive results are not listed. Calls of active or inactive are those of the source. The call rests on the fitted dose curve.
Your reply should match one of these outcome classes. active, inactive

Example results:
# MOLECULE, CLASS_LABEL
rows = [
    ("CCCCN=C=O", "inactive"),
    ("CC1CC(CC2CCC(N)C(C)C2)CCC1N (centres undefined)", "inactive"),
    ("O=S1(=O)OC(c2cc(Br)c(O)c(Br)c2)(c2cc(Br)c(O)c(Br)c2)c2ccccc21", "active"),
    ("C/C=C/C=O", "inactive"),
    ("CCCCCCC#N", "inactive"),
    ("CCCCC(O)(Cn1cncn1)c1ccc(Cl)cc1Cl (centres undefined)", "active"),
    ("ClCc1cccc(Cl)c1", "inactive"),
    ("COC(=O)c1cncn1C(C)c1ccccc1 (centres undefined)", "inactive"),
]

Outcome? `COc1cc(Cl)c(OC)cc1Cl` inactive

Recorded test outcome, item `Clc1cc(Cl)c(Cl)c(Cl)c1` inactive

What is the recorded call for this molecule in the test? `CCCCCCCCCCOC(=O)c1ccccc1C(=O)OCCCCCCCCCC` inactive

In this assay, the call recorded for `CCOP(=O)(OCC)SCCSCC` was what? inactive

Can you look up the reported call for `O=[N+]([O-])c1ccccc1CCl` for me? inactive

Please share the test call associated with `CCCN(CCC)c1c([N+](=O)[O-])cc(S(C)(=O)=O)cc1[N+](=O)[O-]` . inactive

###

- TARGET_OF_ASSAY: Thyrotropin receptor (Homo sapiens)
- EXPERIMENTAL_DETAILS: qHTS assay to identify small molecule agonists of the thyroid stimulating hormone receptor (TSHR) signaling pathway (AID 1224843); also: nearly all actives have a fitted effect of over 45% in size
- CONDITION_SET: TSHR-HEK293 cells, cAMP HTRF, agonist mode, 30 min; series mostly up to 92.4 µM
Results filed as inconclusive are left out. The source made the active and inactive calls. Calls come from the whole dose curve.
Select the matching outcome among label 1 = active, label 0 = inactive

# SMILES_STRUCTURE, CLASS_LABEL
data = [
    ("CC(Cl)Cl", "label 0"),
]

For `COP(=S)(OC)Oc1cc(Cl)c(I)cc1Cl` , what call appears in the results of this test? label 0

So what was the verdict on `Nc1nc(=S)[nH][nH]1` in this test? label 0

Assay outcome for `O=[N+]([O-])C(Br)(CO)CO` : what was it? label 1

###

- EXPERIMENTAL_DETAILS: qHTS assay to identify small molecule antagonists of the sonic hedgehog signaling (Shh) pathway - cell viability counter screen (AID 1259367); also: % is scaled to controls: 0 for no effect and ±100 for the full control effect; nearly all actives have a fitted effect of over 55% in size
- CONDITION_SET: NIH/3T3 Gli1-Luc viability, CellTiter-Fluor, 24 h; series mostly up to 92.4 µM
Records with an inconclusive call do not appear. Calls of active or inactive are those of the source. The call rests on the fitted dose curve; in most records, active means well fitted cell-killing curve with a large enough effect in the repeat runs; inconclusive means weak or mixed curves, or effect the other way; inactive means no such curve, though single readings can be large or run the other way.
Hi there, use one of these labels in your reply, thanks! y for active, n for inactive

Reference set, count: 2
# COMPOUND, CLASS_LABEL
records = [
    ("Cc1ccc(N)cc1C", "n"),
    ("CO/C=C(/C(=O)OC)c1ccccc1COc1cccc(C(F)(F)F)n1", "n"),
]

I'd appreciate the recorded outcome for `OC(c1ccc(Cl)cc1)(c1ccc(Cl)cc1)c1cccnc1` from this test. n

What was the test verdict on `NC(=O)CI` ? n

Please indicate how the test categorized `Brc1ccccc1` . n

Called result for O=C1C(Cl)C(CCl)CN1c1cccc(C(F)(F)F)c1 (centres undefined) n

So what was the verdict on `CC[C@H]1C[C@H]2[C@@H]3CCC4=CC(=O)CC[C@@H]4[C@H]3CC[C@]2(C)[C@H]1O` in this test? n

Field: outcome | Entry: `ClCc1cccc(Cl)c1` n
